- ASSAY_OVERVIEW: qHTS assay to identify small molecules that stimulate interleukin-8 (IL-8) secretion (AID 651758); also: 0% is about no effect
- CONDITION_LABEL: HTRF ratio (665/615); series mostly up to 92.2 µM
Records with an inconclusive call do not appear. Calls of active or inactive are those of the source. Calls follow the shape of the dose curve; as a rule, active = well fitted activation curve with a large enough effect in the signal ratio; inconclusive = small, poorly fitted or top-dose-only effect, or effect the other way, or a change in a side signal; inactive = flat fitted curve, though single readings scatter; the % refers to the signal ratio.

{"MOL_SMILES": "CCCCOC(=O)c1ccccc1C(=O)OCc1ccccc1", "outcome": "inactive"}
{"MOL_SMILES": "c1cc2ccc3cccc4ccc(c1)c2c34", "outcome": "inactive"}
{"MOL_SMILES": "O=S(=O)(c1ccc(Cl)cc1)c1ccc(Cl)cc1", "outcome": "inactive"}
{"MOL_SMILES": "O=C(O)COc1ccccc1", "outcome": "inactive"}
{"MOL_SMILES": "C1CCC(NC2CCCCC2)CC1", "outcome": "inactive"}

* * *

- ASSAY_OVERVIEW: qHTS of pediatric cancer cell lines to identify multiple opportunities for drug repurposing: Primary screen for RD cells (AID 1347104); also: nearly all actives have a fitted effect of over 55% in size
- CONDITION_LABEL: RD rhabdomyosarcoma viability, CellTiter-Glo luminescence, 48 h; series mostly up to 46 µM
Records with an inconclusive call do not appear. Activity calls are given as the source filed them. The call rests on the fitted dose curve; in most records, active means well fitted cell-killing curve with a large enough effect; inconclusive means small, poorly fitted or top-dose-only effect; inactive means flat fitted curve, though single readings scatter.
Possible outcomes: TRUE (active), FALSE (inactive)

{"COMPOUND": "O=C1C(I)=CC(=C(c2cc(I)c(O)c(I)c2)c2ccccc2C(=O)O)C=C1I", "CLASS_LABEL": "FALSE"}
{"COMPOUND": "CN(C)NC(=O)CCC(=O)O", "CLASS_LABEL": "FALSE"}
{"COMPOUND": "C=C[C@@H]1CN2CCC1C[C@H]2[C@H](O)c1ccnc2ccccc12 (stereo partly drawn)", "CLASS_LABEL": "TRUE"}
{"COMPOUND": "CCCCCCCCCCCCCCCC[N+](C)(C)C", "CLASS_LABEL": "TRUE"}
{"COMPOUND": "COC[C@H]1OC(=O)c2coc3c2[C@@]1(C)C1=C(C3=O)[C@@H]2CC[C@H](O)[C@@]2(C)C[C@@H]1OC(C)=O", "CLASS_LABEL": "TRUE"}
{"COMPOUND": "O=C(O)CCCOc1ccc(Cl)cc1Cl", "CLASS_LABEL": "FALSE"}
{"COMPOUND": "CO[C@H]1CCC(O[C@H]2C[C@H]([C@]3(C)CC[C@]4(C[C@H](O)[C@@H](C)[C@@H]([C@@H](C)C=C(C)C(=O)[C@H](C)C[C@H](C)C(=O)O)O4)O3)O[C@]3(O[C@@H]([C@H]4O[C@@](O)(CO)[C@H](C)C[C@H]4C)C[C@H]3C)[C@H]2C)O[C@H]1C (stereo partly drawn)", "CLASS_LABEL": "TRUE"}
{"COMPOUND": "C[C@]12CC[C@H](O)CC1=CC[C@H]1[C@H]3CCC(=O)[C@@]3(C)CC[C@@H]12", "CLASS_LABEL": "FALSE"}
{"COMPOUND": "Cc1ccc(Cl)c(O)c1", "CLASS_LABEL": "FALSE"}
{"COMPOUND": "O=C(O)COc1nc(Cl)c(Cl)cc1Cl", "CLASS_LABEL": "FALSE"}
{"COMPOUND": "C[C@@H]1CC[C@@]2(OC1)O[C@H]1C[C@H]3[C@@H]4CC=C5C[C@@H](O[C@@H]6O[C@H](CO)[C@@H](O[C@@H]7O[C@@H](C)[C@H](O)[C@@H](O)[C@@H]7O)[C@H](O)[C@@H]6O[C@@H]6O[C@@H](C)[C@H](O)[C@@H](O)[C@@H]6O)CC[C@]5(C)[C@@H]4CC[C@]3(C)[C@@H]1[C@H]2C", "CLASS_LABEL": "TRUE"}
{"COMPOUND": "Nc1ccc(Cl)cc1", "CLASS_LABEL": "FALSE"}
{"COMPOUND": "CCCCC(CC)COC(=O)c1ccccc1C(=O)OCC(CC)CCCC (stereo not drawn)", "CLASS_LABEL": "FALSE"}
{"COMPOUND": "CCOP(=O)(OCC)C(C)NC(=O)N(CCCl)N=O (stereo not drawn)", "CLASS_LABEL": "FALSE"}
{"COMPOUND": "C[C@]12Cc3cn[nH]c3C[C@@H]1CC[C@@H]1[C@H]2CC[C@@]2(C)[C@H]1CC[C@]2(C)O", "CLASS_LABEL": "FALSE"}
{"COMPOUND": "O=C1CCC[C@@H]2[C@H]3CCCN4CCC[C@@H](CN12)[C@@H]34", "CLASS_LABEL": "FALSE"}
{"COMPOUND": "O=S(=O)(F)Cc1ccccc1", "CLASS_LABEL": "FALSE"}
{"COMPOUND": "O=C(Oc1ccc([N+](=O)[O-])cc1)N1CCN(Cc2cccc(Oc3ccccc3)c2)CC1", "CLASS_LABEL": "TRUE"}

* * *

- ASSAY_OVERVIEW: Cell Viability - LYMP2-007 (AID 979);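 also: cells exposed to compound for 24 h before reading; nearly all actives have a fitted effect of over 60% in size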
- CONDITION_LABEL: LYMP2-007 lymphoblastoid cell viability; series mostly up to 92.2 µM
- Excerpt: NIH Chemical Genomics Center [NCGC] NIH Molecular Libraries Screening Centers Network [MLSCN] National Institutes of Environmental Health Sciences [NIEHS] National Toxicology Program [NTP] We have developed a 1536-well cell-based assay for quantitative high throughput screening (qHTS) against a number of cell lines to determine in vitro cytotoxicity of small molecules. […] 8. Detection; Luminescence; Viewlux plate reader […]
Records with an inconclusive call do not appear. Calls of active or inactive are those of the source. The call rests on the fitted dose curve; in most records, active means well fitted cell-killing curve with a large enough effect; inconclusive means small, poorly fitted or top-dose-only effect; inactive means flat fitted curve, though single readings scatter.
Possible outcomes: Yes for active, No for inactive

{"MOLECULE": "Cc1cc(O)ccc1Cl", "CLASS_LABEL": "No"}
{"MOLECULE": "O=C(O)C(Cl)Cl", "CLASS_LABEL": "No"}
{"MOLECULE": "COC(C)(C)CCCC(C)C/C=C/C(C)=C/C(=O)OC(C)C (stereo not drawn)", "CLASS_LABEL": "No"}
{"MOLECULE": "Nc1ccc(Cl)cc1", "CLASS_LABEL": "No"}
{"MOLECULE": "O=[N+]([O-])c1c2ccccc2cc2ccccc12", "CLASS_LABEL": "No"}
{"MOLECULE": "O=C(O)COc1ccccc1", "CLASS_LABEL": "No"}
{"MOLECULE": "CC(=O)[O][Hg][c]1ccccc1", "CLASS_LABEL": "Yes"}
{"MOLECULE": "CN(C)NC(=O)CCC(=O)O", "CLASS_LABEL": "No"}

* * *

- ASSAY_OVERVIEW: qHTS assay for environmental chemicals that activate the Aryl hydrocarbon Receptor (AhR) signaling pathway (AID 651777); also: % of control where 0% means no effect; nearly all actives have a fitted effect of over 15% in size
- CONDITION_LABEL: 1A2-DRE human hepatoma cells, luciferase, 24 h; hits give high values
- Excerpt: National Center for Advancing Translational Sciences [NCATS] NIH Chemical Genomics Center [NCGC] U.S. Environmental Protection Agency [EPA] National Institutes of Environmental Health Sciences [NIEHS] National Toxicology Program [NTP] The Aryl hydrocarbon Receptor (AhR) plays a critical role in the development of cancer or neoplasm and its formation is most likely due to genetic mutations and the influence of environment. […]
Results filed as inconclusive are left out.
Reported activation values for a set of compounds

{"MOL_SMILES": "CCOCCOC(C)=O", "SCALE_UNIT": "%", "activation": -0.221}
{"MOL_SMILES": "CCCCCC[C@H]1C(=O)O[C@H](C)[C@H](NC(=O)c2cccc(NC=O)c2O)C(=O)O[C@@H](C)[C@@H]1OC(=O)CC(C)C", "SCALE_UNIT": "%", "activation": -1.12}
{"MOL_SMILES": "OCCCBr", "SCALE_UNIT": "%", "activation": 1.3}
{"MOL_SMILES": "Clc1cnc(Oc2ccc(Oc3ncc(Cl)cc3Cl)cc2)c(Cl)c1", "SCALE_UNIT": "%", "activation": 0.838}
{"MOL_SMILES": "O=[N+]([O-])c1c(Cl)c(Cl)cc(Cl)c1Cl", "SCALE_UNIT": "%", "activation": 4.33}
{"MOL_SMILES": "O=C(O)COc1nc(Cl)c(Cl)cc1Cl", "SCALE_UNIT": "%", "activation": 0.732}
{"MOL_SMILES": "O=C(O)CCCOc1ccc(Cl)cc1Cl", "SCALE_UNIT": "%", "activation": 4.85}
{"MOL_SMILES": "CC(C)(O)C(=O)Nc1ccc([N+](=O)[O-])c(C(F)(F)F)c1", "SCALE_UNIT": "%", "activation": -1.15}
{"MOL_SMILES": "O=[N+]([O-])c1cc([N+](=O)[O-])c2ccccc2c1", "SCALE_UNIT": "%", "activation": 11.7}
{"MOL_SMILES": "O=C(Nc1ccccc1-c1ccc(Cl)cc1)c1cccnc1Cl", "SCALE_UNIT": "%", "activation": 0.984}
{"MOL_SMILES": "CS(=O)(=O)c1ccc(C(=O)C2C(=O)CCCC2=O)c([N+](=O)[O-])c1", "SCALE_UNIT": "%", "activation": 3.32}
{"MOL_SMILES": "COc1nn(CSP(=S)(OC)OC)c(=O)s1", "SCALE_UNIT": "%", "activation": -1.09}
